# system: human claudin 18 isoform 2 (claudin 18.2) (human)
# test.protocol: cell-based or functional assay
Assign class 1 whenever ADCC EC50, CHO-18.2 target cells (mouse FcγRIV reporter bioluminescence) does not fall below 2 nM; assign class 0 whenever it does.

binder="Hu-11 (antibody, V domains shown) VH: QVHLVQSGAEVKKPGASVKVSCKASGYTFTSYYIHWVRQAPGQGLEWMGIINPSGGNTIYAQKFQGRVTMTRDTSTTTVYVELSSLRSEDTAVYYCARDHYDILTGYYPLYYGMDVWGQGTTVTVSS VL: SYELTQPLSVSVALGQTARITCGGNNIGSKNVHWYQQKPGQAPVLVIYRDSNRPSGIPERFSGSKSGNTATLTISRAQAGDEADYYCQVWDSSTAVFGGGTQLTAL" class_label="class 0"
binder="Hu-12 (antibody, V domains shown) VH: EVRLLESGGGLVQPGGSLRLSCIASGFTFSSYVMSWVRQAPGKGLEWVSGISGSGGSTYYADSVKGRFTISRDNSKNTLYLQISSLRAEDTAVYYCTKAPTLWWFFDLWGRGTLVTVSS VL: DIQVTQSPSFLSASVGDRVTITCRASQGIRSYLAWYQQKPGKAPKLLIYAASTLQSGVPSRFSGSGSGTEFTLTISSLLPEDFATYYCQQLNSYPLTFGGGTKVEIK" class_label="class 1"
binder="Hu-2 (antibody, V domains shown) VH: QLRLQESGPGLVKPSETLSLTCAVSGGSISSSRSYWGWIRQPPGKGLELIGSIYYSGSTYYNPSLKSRVTISVDTSKNQFSLKLTSVTATDTAVYYCARQTLRYFDWLSPFDYWGQGTLVTVSS VL: EIVMTQSPATLSLSPGERATLSCRASQSVRSNYLSWYQQKPGQAPRLLIYGTSTRATGIPARFSGSGSGTDFTLTISSLQPEDFAVYFCQQDYNLPITFGQGTRLEIK" class_label="class 1"

## Task Form field: ADCC EC50, CHO-18.2 target cells (mouse FcγRIV reporter bioluminescence) at least 2 nM? Entry: Hu-1 (antibody, V domains shown) VH: QVQLVESGGGVVQPGRSLRLSCAASGFTFSNYGMYWVRQAPGKGLEWVAVIWYDGSNKNYADSVKGRFTISRDNSKNTLNLQMNSLRAEDTAVYYCARRGYDILTGYDYYGMDVWGQGTTVTVSA VL: QTVVTQEPSFSVSPGGTVTLTCGLSSGSVSTSYYPSWYQQTPGQAPRTLIYRTNTRSSGVPDRFSGSILGNKAALTISGAQAPDESNYYCVLYMGSGIWVFGGGTKLTVL
## Result class 0

## Task Kindly determine if ADCC EC50, CHO-18.2 target cells (mouse FcγRIV reporter bioluminescence) recorded for Hu-9 (antibody, V domains shown) VH: EVQLLESGGGLVQPGGSLRLSCAASGFTFSSFAMTWVRQAPGKGLEWVSSLSGSGRSTYYAASMKGRFTISRDNSKNTLYLQMNSLRAEDTAIYYCAKSLSYYHYYFDYWGQGTLVTVTS VL: DIQLTQSPSFLSASVGDRVPITCRASQGISNFLAWYQQKPGKAPELLIHSASTLQSGVPSRFSGSGSGTEFTLTISNLQPQDFATYYCQQVNSYPLTFGGGTKVEIK is above or exactly 2 nM.
## Result class 0

## Task API: above_or_equal(metric=ADCC EC50, CHO-18.2 target cells (mouse FcγRIV reporter bioluminescence), cutoff=2 nM) for item Hu-4 (antibody, V domains shown) VH: QVQLVESGGGVVQPGRSLRLSCAASGFTFSFYGMHWVRQAPGKGLEWVAVIWYDGSNKNYVDSVKGRFTISRDNSKNTLYLQMNSLRAEDTAVYYCARRNYDILTGRDYYGMDVWGQGTTVTVSS VL: QTVVTQEPSFSVSPGGTVTLTCGLNSGSVSTSYYPSWYQQTPGQAPRTLIYSTNTRSSGVPDRFSGSILGNKAALTITGAQADDDSDYYCVLYMGSGIWVFGGGTKLTVL
## Result class 1

## Task Determine whether measured ADCC EC50, CHO-18.2 target cells (mouse FcγRIV reporter bioluminescence) meets or exceeds 2 nM for Hu-16 (antibody, V domains shown) VH: EVQLLESGGGVVQPGGSLRLSCAASGLIFSSYAMSWVRQAPGKGLEWVSVIGGSGSNTFYADSVKGRFTISRDNSKNTLFLQMNSLRAEDTAVYYCAKDRGYDILTGYYNYYYGMDVWGQGITVTVSS VL: DIQMTQSPSSLSASVGDRVTITCRASQGIRNDLGWYQQKPGKAPKRLIYAASSLQSGVPSRFSGSGSGTEFTLTISSLQPEDFATYYCLQHNSYPYTFGQGTKLEIK
## Result class 1

## Task Kindly determine if ADCC EC50, CHO-18.2 target cells (mouse FcγRIV reporter bioluminescence) recorded for Hu-10 (antibody, V domains shown) VH: EVQLSESGGALVQPGESLRLSCAASGFTFSSYAMTWVRQAPGKGLEWVSSLSGSGRSTYYAASIKGRFTISRDNSKNTLYLQMSSLRAEDTAIYYCAKSLSYYHYYFDYWGQGTLVTVSS VL: DIQLTQSPSFLSASVGDRVPITCRASQDISNYLAWYQQKPGKAPKLLIYSASTLQSGVPSRFSGSGSGTEFTLTISSLQPEDFASYHCQQVKTYPLTFGGGTKVEIK is above or exactly 2 nM.
## Result class 0

## Task Say whether Hu-6 (antibody, V domains shown) VH: QMQLRESGPGLVKPSETLSLTCTVSNGPISSSRYYWGWIRQPPGKGLEWIGSFHYSGSTYYKPSLKSRVTISADTSKNQLSLELSSVTAADTAVYYCARLVLRYFDWLGYFDLWGRGTLVTVSS VL: EFVMTQSPATLSLSPGERATLSCRASQSIRSNYLSWYQQKPGQAPRLLIYGASTRATAIPARFSGSGSGTDFTLTISSLQPEDFAVYYCQQDYNLPITFGQGTRLEIK shows ADCC EC50, CHO-18.2 target cells (mouse FcγRIV reporter bioluminescence) of 2 nM or more.
## Result class 1

## Task Evaluate Hu-3 (antibody, V domains shown) VH: QLQLQESGPGLVKPSETLSLTCTVSDGPISSSRYYWGWIRQPPGKGLEWIGSFHYSGSTYYNPSLKSRVTISADTSKNQFSLKLSSVTAADTAVYYCARLVLRYFDWLGFFDLWGRGTLVTVSS VL: EIVMTQSPAILSLSPGERAALSCRASQSVRSSYLSWYQQKPGQAPRLLIYGTSTRATGIPARFSGSGSGTDFTLTISSLQPEDFAVYYCQQDYNLPITFGQGTRLEFK : ADCC EC50, CHO-18.2 target cells (mouse FcγRIV reporter bioluminescence) at minimum 2 nM?
## Result class 1
